Here, each record is paired with measured EC50 data.
Tested on: KB
Assay: Cytotoxicity against human KB cells
Type: functional
Details: read-out: ED50 (the source's name)
Respond numerically; units are µg/mL and should not be typed.

Request the reported EC50 associated with COc1ccc(-c2oc3c(OC)c(OC)c(OC)c(O)c3c(=O)c2OC)cc1 [5-HYDROXYAURANETIN]
1.8

Which EC50 value belongs to "COc1ccc(-c2cc(=O)c3c(O)c(OC)c(OC)c(OC)c3o2)cc1" ?
6

Entry "COc1cc([C@@H]2c3cc4c(cc3C[C@H]3COC(=O)[C@@H]32)OCO4)cc(OC)c1OC" : reported EC50 = ?
0.032
